- Assay: logP determination via retention times, calibrated with unbranched alkan-2-ones
- Type: physicochemical
- Condition: reversed-phase C18 HPLC column; method **: HPLC reversed-phase C 18, 43° C., 0.1% aqueous phosphoric acid and acetonitrile, linear gradient 10% to 95% acetonitrile; read-out: logP
Structures can show the parent of a compound that is named as a salt.
Property Name: chromatographic logP

INSERT INTO assay_data (compound, property_name, test_value) VALUES
  ('CC(C)NC(=O)c1ccc(Nc2ncc(Cl)c(NC3CC3)n2)cc1', 'chromatographic logP', 1.73);

a: NS(=O)(=O)c1cccc(Nc2ncc(Cl)c(NC3CC3)n2)c1
b: CC(C)Oc1ccc(Nc2ncc(Cl)c(NCC3CC3)n2)cc1 [Example 55, hydrochloride]
Higher chromatographic logP between a and b ? Lab note: record the label of whichever item you select.
b

---

- Assay: logP determination via retention times, calibrated with unbranched alkan-2-ones
- Format: physicochemical
- Condition: HPLC on reversed-phase C18, method *: 40° C.; mobile phase 0.1% aqueous formic acid and acetonitrile; linear gradient 10% to 95% acetonitrile
Marks after values point to notes of the source that are not given here.
Property Name: logP

INSERT INTO results (structure_notation, property_name, test_value) VALUES
  ('CC(C)OC(=O)Nc1cccc(Nc2ncc(Cl)c(NC3CC3)n2)c1', 'logP', '1.99*'),
  ('CC(=O)c1ccc(Nc2ncc(Br)c(NC3CC3)n2)cc1', 'logP', '2.09*'),
  ('Clc1cnc(Nc2ccc3c(c2)OCO3)nc1NC1CC1', 'logP', '1.59*');

Quick one: logP for FC(F)Oc1cccc(Nc2ncc(Br)c(NC3CC3)n2)c1 ?
2.66*

Quick one: logP for C#Cc1cccc(Nc2ncc(Br)c(NC3CC3)n2)c1 ?
2.41*

Quick one: logP for CSc1ccc(Nc2ncc(Cl)c(NC3CC3)n2)cc1C(F)(F)F ?
3.48*

Quick one: logP for COc1cc(Nc2ncc(Cl)c(NC3CC3)n2)ccc1NC(C)=O ?
1.18*

---

- Assay: logP determination via retention times, calibrated with unbranched alkan-2-ones
- Type: physicochemical
- Condition: HPLC on reversed-phase C 18, EEC Directive 79/831 Annex V.A8; method *: 40° C., 0.1% aqueous formic acid and acetonitrile, linear gradient 10% to 95% acetonitrile
Marks after values point to notes of the source that are not given here.
Property: logP; scope: individual molecules

Below, each entry is followed by its recorded logP result.
INSERT INTO measurements (structure_notation, property_name, test_value) VALUES
  ('COc1cc(Nc2ncc(Cl)c(NCC3CC3)n2)ccc1NC(C)=O', 'logP', '1.53*'),
  ('Fc1ccc(Nc2ncc(Br)c(NC3CC3)n2)cc1', 'logP', '1.96*'),
  ('CC(=O)Nc1ccc(Nc2ncc(Br)c(NCC3CC3)n2)cc1Cl', 'logP', '1.68*'),
  ('O=C(c1ccc(Nc2ncc(Br)c(NCC3CC3)n2)cc1)N1CCOCC1', 'logP', '1.64*'),
  ('CN(C=O)c1ccc(Nc2ncc(Cl)c(NCC3CC3)n2)cc1', 'logP', '1.56*');

Quick one: logP for CCOC(=O)Nc1ccc(Nc2ncc(Br)c(NCC3CC3)n2)cc1O ?
1.75*

Quick one: logP for COC(=O)Cc1cccc(Nc2ncc(Cl)c(NCC3CC3)n2)c1 ?
1.92*

Quick one: logP for CNC(=O)c1ccc(Nc2ncc(Cl)c(NCC3CC3)n2)cc1 ?
1.44*

Quick one: logP for FC(F)Sc1ccc(Nc2ncc(Br)c(NCC3CC3)n2)cc1 ?
3.07*

Quick one: logP for CCOC(=O)Cc1ccc(Nc2ncc(Cl)c(NCC3CC3)n2)cc1 ?
2.09*

---

- Assay: logP determination via retention times, calibrated with unbranched alkan-2-ones
- Type: physicochemical
- Condition: HPLC on reversed-phase C18 column (EEC Directive 79/831 Annex V.A8); method *: 40° C.; 0.1% aqueous formic acid and acetonitrile; linear gradient 10% to 95% acetonitrile
Marks after values point to notes of the source that are not given here.
Property Name: logP

Below, each entry is followed by its recorded logP result.
INSERT INTO measurements (compound, test_value) VALUES
  ('CN(C)S(=O)(=O)Oc1cccc(Nc2ncc(Cl)c(NC3CC3)n2)c1 [compound 244]', '2.26*'),
  ('Brc1cnc(Nc2ccccc2)nc1NCC1CC1 [compound 189]', '1.93*'),
  ('CC(=O)N(C)c1ccc(Nc2ncc(C(F)(F)F)c(NCC3CC3)n2)cc1 [compound 202]', '2.13*');

Quick one: logP for O=S(=O)(Cc1cccc(Nc2ncc(Cl)c(NC3CC3)n2)c1)N1CCOCC1 [compound 261] ?
1.62*

Quick one: logP for CCOc1ccc(Nc2ncc(Cl)c(NC3CC3)n2)cc1 [compound 183] ?
1.76*

Quick one: logP for O=S(=O)(Cc1cccc(Nc2ncc(Cl)c(NC3CC3)n2)c1)N1CCCCC1 [compound 262] ?
2.24*

Quick one: logP for Brc1cnc(Nc2ccc(-c3nccs3)cc2)nc1NC1CC1 [compound 251] ?
2.49*

Quick one: logP for O=C1CCCN1c1cccc(Nc2ncc(C(F)(F)F)c(NC3CC3)n2)c1 [compound 255] ?
2.23*

---

- Assay: logP determination via retention times, calibrated with unbranched alkan-2-ones
- Type: physicochemical
- Condition: HPLC on reversed-phase C18, method *: 40° C., 0.1% aqueous formic acid and acetonitrile, linear gradient 10% to 95% acetonitrile
Marks after values point to notes of the source that are not given here.
Property Name: logP

Below, each entry is followed by its recorded logP result.
INSERT INTO measurements (structure_notation, property_name, test_value) VALUES
  ('CC(C)(C)OC(=O)NCc1ccc(Nc2ncc(Cl)c(NCC3CC3)n2)cc1', 'logP', '2.21*'),
  ('Cc1ccc(C)c(Nc2ncc(Cl)c(NC3CC3)n2)c1', 'logP', '1.83*'),
  ('O=C1OCCN1c1ccc(Nc2ncc(Cl)c(NCC3CC3)n2)cc1', 'logP', '1.39*'),
  ('COCc1cccc(Nc2ncc(C(F)(F)F)c(NC3CC3)n2)c1', 'logP', '2.78*'),
  ('CCSc1cccc(Nc2ncc(Br)c(NC3CC3)n2)c1', 'logP', '2.92*'),
  ('CCOC(=O)c1cccc(Nc2ncc(Br)c(NC3CC3)n2)c1', 'logP', '2.4*'),
  ('Clc1cnc(Nc2cccc(C3CCNCC3)c2)nc1NC1CC1', 'logP', '0.88*'),
  ('COCc1cccc(Nc2ncc(C(F)F)c(NCC3CC3)n2)c1', 'logP', '1.73*');

Please find the next compound below.
Quick one: logP for COc1cccc(Nc2ncc(Cl)c(NCC3CC3)n2)c1 ?
1.97*

---

- Assay: logP determination via retention times, calibrated with unbranched alkan-2-ones
- Type: physicochemical
- Condition: method *: HPLC reversed-phase C18, 40° C., 0.1% aqueous formic acid and acetonitrile, linear gradient 10% to 95% acetonitrile
Property Name: logP

INSERT INTO measurements (structure_notation, test_value) VALUES
  ('CCSc1cccc(Nc2ncc(Cl)c(NC3CC3)n2)c1.Cc1ccc(S(=O)(=O)O)cc1', '2.73*');

Quick one: logP for CNC(=O)c1ccc(Nc2ncc(Br)c(NCC3CC3)n2)cc1 ?
1.58*

Quick one: logP for N#Cc1cnc(Nc2ccccc2)nc1NC1CC1 ?
2.44*

Quick one: logP for Ic1cnc(Nc2ccccc2)nc1NC1CC1 ?
1.82*

Quick one: logP for CCSc1cccc(Nc2ncc(Cl)c(NC3CC3)n2)c1 ?
2.72*

Quick one: logP for CNC(=O)c1ccc(Nc2ncc(Br)c(NC3CC3)n2)cc1 ?
1.39*

Quick one: logP for CCC(=O)Nc1cccc(Nc2ncc(Br)c(NC3CC3)n2)c1 ?
1.54*

Quick one: logP for CC(C)COc1cccc(Nc2ncc(Cl)c(NC3CC3)n2)c1 ?
3.17*

Quick one: logP for CSc1ccc(Nc2ncc(Cl)c(NC3CC3)n2)cc1 ?
2.1*

Quick one: logP for O=S(=O)(c1ccc(Nc2ncc(Cl)c(NC3CC3)n2)cc1)N1CCOCC1 ?
2.68*

---

- Assay: logP determination via retention times, calibrated with unbranched alkan-2-ones
- Format: physicochemical
- Condition: method *: HPLC reversed-phase C18, 40° C., 0.1% aqueous formic acid and acetonitrile, linear gradient 10% to 95% acetonitrile
Property: logP; scope: individual molecules

Below, each entry is followed by its recorded logP result.
INSERT INTO results (molecule, property_name, test_value) VALUES
  ('O=S(=O)(Cc1cccc(Nc2ncc(Cl)c(NC3CC3)n2)c1)NC1CC1 [compound 372]', 'logP', '1.59*'),
  ('O=C1CCCCN1Cc1cccc(Nc2ncc(Cl)c(NC3CC3)n2)c1 [compound 373]', 'logP', '1.58*'),
  ('CC(C)(C)C(=O)Nc1cccc(Nc2ncc(Br)c(NCC3CC3)n2)c1 [compound 451]', 'logP', '2.06*'),
  ('CSc1cccc(Nc2ncc(Cl)c(NC3CC3)n2)c1 [Example 74]', 'logP', '2.21*');

Please find the next molecule below.
Quick one: logP for Clc1cnc(Nc2ccc3[nH]ccc3c2)nc1NC1CC1 [Example 71] ?
1.47*
